Biological target: T1, GPR10 (UniProt P49683 1-370, limits assumed)
T1 sequence (looked up): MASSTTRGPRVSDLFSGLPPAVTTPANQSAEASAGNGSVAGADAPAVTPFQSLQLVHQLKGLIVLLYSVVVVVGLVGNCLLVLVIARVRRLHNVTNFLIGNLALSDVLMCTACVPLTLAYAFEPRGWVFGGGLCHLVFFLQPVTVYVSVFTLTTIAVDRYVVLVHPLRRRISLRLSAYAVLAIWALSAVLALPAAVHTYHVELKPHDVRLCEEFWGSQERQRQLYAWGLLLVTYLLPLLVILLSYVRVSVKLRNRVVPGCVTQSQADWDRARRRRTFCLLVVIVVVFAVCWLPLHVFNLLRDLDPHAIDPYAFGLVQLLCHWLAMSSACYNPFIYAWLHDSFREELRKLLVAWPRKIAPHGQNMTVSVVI
Assay: cell-based or functional assay
Bridges are numbered along the chain shown (N, C = ends). Where no end group is shown, it is not given here. [ ]: non-standard residue; d: D form. NMeR = CN[C@@H](CCCNC(=N)N)C(=O)O; β3hR = N=C(N)NCCC[C@H](N)CC(=O)O; Nle = CCCC[C@H](N)C(=O)O; L1 = not defined here; L3 = not defined here; L4 = not defined here; L5 = not defined here
Mark Met only when GPR10 EC50 stays strictly below 80 nM. Values equal to the cut-off are Not met.

-- ask Problem: For the binder SRAHQCSMETRTCDINPAWYTGRGIRPVGRF-NH2 (linker 6-13 via L5; reading uncertain) [Conjugate 238] , is GPR10 EC50 under 80 nM?
-- reply Not met

-- ask Same lookup for SRAHQCS[Nle]ETRTCDINPAWYTG[NMeR]GIRPVGRF-NH2 (linker 6-13 via L3; reading uncertain) [Conjugate 257] , please.
-- reply Met

-- ask Same lookup for SRAHQCSMETRTCDINPAWYTGRGIRPVGRF-NH2 (linker 6-13 via L1; reading uncertain) [Conjugate 226] , please.
-- reply Met

-- ask Same lookup for SRAHQCS[Nle]ETRTCDINPAWYTG[NMeR]GIRPVGRF-NH2 (linker 6-13 via L4; reading uncertain) [Conjugate 261] , please.
-- reply Not met

-- ask Same lookup for SRAHQCS[Nle]ETRTCDINPAWYTG[β3hR]GIRPVGRF-NH2 (cysteine pairing not given here) [SEQ ID NO 98] , please.
-- reply Met

-- ask Same lookup for SRAHQCS[Nle]ETRTCDINPAWYTGRGIRPVG[NMeR]F-NH2 (cysteine pairing not given here) [SEQ ID NO 102] , please.
-- reply Not met
